# System: HCT-8
# Experiment: Cytotoxicity against human HCT8 cells after 96 hrs by MTT assay
# Type: functional, cell-based
# Experimental setup: HCT-8, 96 h
pIC50: −log10 of the molar value.
Task for the reader: assign each of the following molecules its reported pIC50.

Recorded pIC50, per entry:
| Molecule | pIC50 |
| --- | --- |
| CC(=O)[C@H]1[C@H](O)C[C@@]2(C)[C@@H]3CC=C4[C@@H](C=C(O[C@@H]5O[C@H](CO)[C@@H](O)[C@H](O)[C@H]5O)C(=O)C4(C)C)[C@]3(C)C(=O)C[C@]12C [KHEKADAENGOSIDE K] | < 5.00 |
| CC1(C)C(=O)C(O[C@@H]2O[C@H](CO)[C@@H](O)[C@H](O)[C@H]2O)=C[C@@H]2C1=CC[C@@H]1[C@@]2(C)C(=O)C[C@]2(C)[C@@H]3[C@@H](C[C@@]12C)O[C@H](C(C)(C)O)CC(=O)[C@]3(C)O | < 5.00 |

Here is another molecule to look at.
Input line: // Input: CC(=O)OC(C)(C)/C=C/C(=O)[C@](C)(O)[C@H]1[C@H](O)C[C@@]2(C)[C@@H]3CC=C4[C@@H](C=C(O[C@@H]5O[C@H](CO)[C@@H](O)[C@H](O)[C@H]5O)C(=O)C4(C)C)[C@]3(C)C(=O)C[C@]12C . Output its pIC50 only.
Output line: < 5.00

###

# System: Peritoneal macrophage cell
# Experiment: Antiinflammatory activity in C57BL6J mouse peritoneal macrophages assessed as inhibition of LPS-stimulated TNFalpha secretion at 10 uM after 24 hrs by MTT assay
# Format: functional, cell-based
The source made the active and inactive calls. The calls are words filed in the database; no cut-off is given here.
Endpoint: Activity

| Record smiles | Endpoint | Obs value |
| --- | --- | --- |
| CC1(C)C(=O)C(O[C@@H]2O[C@H](CO)[C@@H](O)[C@H](O)[C@H]2O)=C[C@@H]2C1=CC[C@@H]1[C@@]2(C)C(=O)C[C@]2(C)[C@@H]([C@@]3(C)OC=CC3=O)[C@H](O)C[C@@]12C | Activity | inactive |
| C[C@H]1[C@H]2[C@@H](C[C@@]3(C)[C@@H]4CC=C5[C@@H](C=C(O[C@@H]6O[C@H](CO)[C@@H](O)[C@H](O)[C@H]6O)C(=O)C5(C)C)[C@]4(C)C(=O)C[C@]23C)O[C@@]2(O)CC(C)(C)O[C@@]12O | Activity | inactive |

Data origin, for the record: ChEMBL document CHEMBL1921699
